# Assay procedure: Quantitative High-Throughput Screen for Regulators of Epigenetic Control; also: nearly all actives have a fitted effect of over 60% in size; also: potency is read from the fitted curve at half-maximal effect
# Protocol conditions: murine LDR cells, GFP reporter derepression, 30 h; series mostly up to 53.9 µM
Among all 280,000 compounds or so, about 540 (0.19%) were called active. Another 2% or so got no clear call; they are omitted. This excerpt belongs to a sample that is enriched for actives.
Measured quantity: Potency

# Compound, Readout value
records = [
    ("COc1cc(NC(=O)Cn2c(=O)n(Cc3ccco3)c(=O)c3oc4ccccc4c32)cc(OC)c1", "inactive"),
    ("O=C(Nc1ccncc1)c1cc(-c2ccccn2)nc2ccc(Br)cc12", "inactive"),
    ("COc1ccc(Cn2c(=O)c3oc4ccccc4c3n(CC(=O)Nc3ccc(F)cc3F)c2=O)cc1", "11.2 µM (active)"),
    ("CN(C)c1ccc(/C=C2\\NC(=S)N(Cc3ccccc3)C2=O)cc1", "7.08 µM (active)"),
    ("Cc1oc(C)c2c(=O)cc(-c3ccc4c(c3)OCO4)cc(OC(=O)c3ccc(Cl)cc3)c12", "inactive"),
    ("CC1=NN(Cc2ccccc2)C(=O)/C1=C/c1ccc(N(C)C)cc1", "inactive"),
    ("CCOC(=O)c1ccc(NC(=O)CSc2nc3c([nH]c4ccccc43)c(=O)n2C)cc1", "inactive"),
    ("COc1ccc(NC(=O)c2ccc3nc(CCc4ccccc4)oc3c2)c(OC)c1", "inactive"),
    ("COc1ccc(-c2onc(C)c2C)cc1S(=O)(=O)NCCc1ccccc1", "inactive"),
    ("CCC(C(=O)Nc1cccc(Cl)c1C)n1nc(-c2ccc(C)cc2)ccc1=O (stereo unspecified)", "inactive"),
    ("CCOC(=O)c1c(C)oc2ccc(N(C(=O)c3ccncc3)S(=O)(=O)c3ccc(CC)cc3)cc12", "inactive"),
    ("Cc1noc2ncnc(NCc3ccccc3Cl)c12", "inactive"),
    ("Fc1ccc(-n2ncc3c(Nc4ccc(Oc5ccccc5)cc4)ncnc32)cc1", "inactive"),
    ("Cc1cccc(C)c1-n1ncc(C(=O)NCCCN2CCCCC2)c1C1CCN(C(=O)OC(C)(C)C)CC1", "inactive"),
    ("O=C1NCC(=O)N(Cc2ccccc2)/C1=C/c1ccccc1", "inactive"),
    ("CN(C)c1nc(=Nc2cccc(Cl)c2)ss1", "1.12 µM (active)"),
    ("Cc1ccc(NC(=O)Cc2ccc(NC(=O)N3CCCCc4ccccc43)cc2)cc1", "inactive"),
    ("COc1cccc(CNC(=O)C(=O)NCC(c2cccs2)S(=O)(=O)c2ccccc2)c1 (stereo unspecified)", "inactive"),
    ("Cc1ccc2nc(/C(C#N)=C/c3ccc(-c4ccc(C(=O)OC(C)C)cc4)o3)[nH]c2c1", "1.41 µM (active)"),
    ("CCOc1cc(C(=O)NCCc2csc3nc(-c4ccc(C)cc4)nn23)cc(OCC)c1OCC", "inactive"),
    ("O=C(NCc1ccc2c(c1)CCN2C(=O)c1ccccc1)c1ccccc1", "inactive"),
]
